Provenance of the data: patent US20240417436A1

Target: T1, Avi-Tag Fc with human IL-2R beta and IL-2R gamma attached (Acrobiosystems ACRB-ILG-H82F3-25UG) (human, UniProt P14784 27-239; P31785 23-262)
T1 construct: bought heterodimer; also called CD122 CD132; CD122/CD132 complex
T1 sequence (looked up) 1: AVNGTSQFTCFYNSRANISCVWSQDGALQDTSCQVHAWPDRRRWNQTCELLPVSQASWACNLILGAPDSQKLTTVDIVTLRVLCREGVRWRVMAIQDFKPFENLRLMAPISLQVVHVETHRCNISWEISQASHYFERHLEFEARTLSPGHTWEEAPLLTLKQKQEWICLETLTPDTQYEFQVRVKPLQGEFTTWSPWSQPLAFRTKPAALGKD
T1 sequence (looked up) 2: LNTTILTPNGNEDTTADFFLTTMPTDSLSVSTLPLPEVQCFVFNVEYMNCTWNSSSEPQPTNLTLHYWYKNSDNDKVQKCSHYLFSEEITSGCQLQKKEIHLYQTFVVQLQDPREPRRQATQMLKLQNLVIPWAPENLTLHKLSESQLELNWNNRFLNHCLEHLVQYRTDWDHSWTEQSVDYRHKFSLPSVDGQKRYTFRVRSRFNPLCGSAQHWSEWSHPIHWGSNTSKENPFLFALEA
Assay: BLI (Octet), receptor on SAX2 sensor, IL-2 as analyte
*1 amine or outer side, *2 acyl side, *3 side chain or, on linkers, in order; H or OH if unused. Bridges are numbered along the chain shown (N, C = ends). Primed or numbered codes have the meaning given here. [ ]: non-standard residue; d: D form. cleavable peptide RGRRVANLVG = CC(C)C[C@H](NC(=O)[C@H](CC(N)=O)NC(=O)[C@H](C)NC(=O)[C@@H](NC(=O)[C@H](CCCNC(=N)N)NC(=O)[C@H](CCCNC(=N)N)NC(=O)CNC(=O)[C@H](CCCNC(=N)N)N[*:1])C(C)C)C(=O)N[C@H](C(=O)NCC(=O)[*:2])C(C)C; Ygp″ = O-(PEG8-amino)-tyrosine (O-(8x polyethylene glycol-amino)-tyrosine); Yn3″ = O-(PEG9-azido)-tyrosine (O-(9x polyethylene glycol-azido)-tyrosine); Ygp = O-(8x polyethylene glycol-amino)-tyrosine; Yn3 = O-(9x polyethylene glycol-azido)-tyrosine; Ygp(3) = O-(PEG8-amino)-tyrosine; Yn3(3) = O-(PEG9-azido)-tyrosine; hSer = N[C@@H](CCO)C(=O)O; Nle = CCCC[C@H](N)C(=O)O
measurement-name: kon (M⁻¹ s⁻¹)

1) CMP-328 (ligand, disulfide 58-105; linker 9-23 via cleavable peptide RGRRVANLVG; also: macrocycle: cleavable peptide bridging Lys9 and Glu23 side chains (structure drawing only)) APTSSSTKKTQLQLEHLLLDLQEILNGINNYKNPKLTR[Nle]L[hSer][Yn3(3)]KF[Ygp(3)][Nle]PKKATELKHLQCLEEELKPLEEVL[hSer]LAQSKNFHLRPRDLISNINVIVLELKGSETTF[hSer]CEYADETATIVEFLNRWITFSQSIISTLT	77800
2) CMP-136 (ligand, disulfide 58-105; bridge N-29; not fully specified (residue 29, bridges); also: cleavable peptide sequence not given here) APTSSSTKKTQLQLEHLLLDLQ[Nle]ILNGIENYKNPKLTR[Nle]L[hSer][Yn3″]KF[Ygp″][Nle]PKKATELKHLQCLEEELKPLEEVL[hSer]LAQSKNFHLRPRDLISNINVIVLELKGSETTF[hSer]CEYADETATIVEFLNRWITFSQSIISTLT	396000
3) CMP-138 (ligand, disulfide 58-105; bridge N-29; not fully specified (residue 29, bridges)) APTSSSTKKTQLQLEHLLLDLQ[Nle]ILNGIENYKNPKLTR[Nle]L[hSer][Yn3]KF[Ygp][Nle]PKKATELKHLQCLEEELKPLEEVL[hSer]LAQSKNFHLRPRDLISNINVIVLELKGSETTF[hSer]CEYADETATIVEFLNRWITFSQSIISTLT	232000
4) CMP-168 (ligand, disulfide 58-105 (inferred); bridge 9-23; not fully specified (residue 23, bridges)) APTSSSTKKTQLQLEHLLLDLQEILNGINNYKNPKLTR[Nle]L[hSer][Yn3]KF[Ygp][Nle]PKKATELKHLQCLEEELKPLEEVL[hSer]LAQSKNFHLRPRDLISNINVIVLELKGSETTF[hSer]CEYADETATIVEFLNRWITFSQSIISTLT	16200
5) CMP-319 (ligand, lactam N-33; not fully specified (bridges)) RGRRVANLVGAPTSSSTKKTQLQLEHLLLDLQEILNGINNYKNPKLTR[Nle]L[hSer][Yn3(3)]KF[Ygp(3)][Nle]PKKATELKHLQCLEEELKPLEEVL[hSer]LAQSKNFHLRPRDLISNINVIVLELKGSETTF[hSer]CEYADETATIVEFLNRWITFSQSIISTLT	85500
